System: L-02 cells
test_summary: Cellular antioxidant activity (CAA) assay in L-02 cells
Assay type: cell-based, Human
test_parameters: PBS wash between antioxidant and ABAP treatments, read-out: EC50 CAA Unit Wash
List of EC50 values.

- compound: "CCCCCCCC(=O)OC1C(=O)c2c(O)cc(O)cc2OC1c1cc(O)c(O)c(O)c1 (centres unmarked)"
  EC50, µM: 35.1
- compound: "CCCCCC(=O)OC1C(=O)c2c(O)cc(O)cc2OC1c1cc(O)c(O)c(O)c1 (centres unmarked)"
  EC50, µM: 52.9
- compound: "CCCCCCCCCCCC(=O)OC1C(=O)c2c(O)cc(O)cc2OC1c1cc(O)c(O)c(O)c1 (centres unmarked)"
  EC50, µM: 122
- compound: "CC(=O)OC1C(=O)c2c(O)cc(O)cc2OC1c1cc(O)c(O)c(O)c1 (centres unmarked)"
  EC50, µM: 172
- compound: "CCCC(=O)OC1C(=O)c2c(O)cc(O)cc2OC1c1cc(O)c(O)c(O)c1 (centres unmarked)"
  EC50, µM: 60.7

====

test_summary: ABTS radical scavenging ability
test_parameters: ABTS radical scavenging test, 30 °C, 6 min, 734 nm
Marks after values point to notes of the source that are not given here.

- compound: "CCCCCC(=O)OC1C(=O)c2c(O)cc(O)cc2OC1c1cc(O)c(O)c(O)c1 (stereo not shown)"
  IC50 ABTS: "77.22 ± 1.46 ^a μg/mL"
- compound: "CC(C)(C)c1cc(O)ccc1O [TBHQ, tert-butylhydroquinone, reference compound]"
  IC50 ABTS: "79.34 ± 3.37 ^a μg/mL"
- compound: "O=C1c2c(O)cc(O)cc2O[C@H](c2cc(O)c(O)c(O)c2)[C@H]1O [DHM, Dihydromyricetin]"
  IC50 ABTS: "46.51 ± 2.19 ^a μg/mL"
- compound: "CCCC(=O)OC1C(=O)c2c(O)cc(O)cc2OC1c1cc(O)c(O)c(O)c1 (stereo not shown)"
  IC50 ABTS: "56.30 ± 1.03 ^a μg/mL"

====

List of IC50 DPPH values.
test_summary: DPPH radical scavenging ability
test_parameters: DPPH radical scavenging test
Marks after values point to notes of the source that are not given here.

- compound: "O=C1c2c(O)cc(O)cc2O[C@H](c2cc(O)c(O)c(O)c2)[C@H]1O [DHM, Dihydromyricetin]"
  IC50 DPPH: "9.04 ± 0.09 ^bc μg/mL"
- compound: "CCCCCC(=O)OC1C(=O)c2c(O)cc(O)cc2OC1c1cc(O)c(O)c(O)c1 (centres unmarked)"
  IC50 DPPH: "11.17 ± 0.04 ^bc μg/mL"
- compound: "CCCCCCCCCCCC(=O)OC1C(=O)c2c(O)cc(O)cc2OC1c1cc(O)c(O)c(O)c1 (centres unmarked)"
  IC50 DPPH: "35.93 ± 5.63 ^d μg/mL"
- compound: "CCCCCCCC(=O)OC1C(=O)c2c(O)cc(O)cc2OC1c1cc(O)c(O)c(O)c1 (centres unmarked)"
  IC50 DPPH: "12.69 ± 0.09 ^c μg/mL"
- compound: "CC(C)(C)c1cc(O)ccc1O [TBHQ, tert-butylhydroquinone, reference compound]"
  IC50 DPPH: "7.55 ± 0.18 ^ab μg/mL"
- compound: "CC(=O)OC1C(=O)c2c(O)cc(O)cc2OC1c1cc(O)c(O)c(O)c1 (centres unmarked)"
  IC50 DPPH: "9.07 ± 0.10 ^bc μg/mL"
- compound: "CCCC(=O)OC1C(=O)c2c(O)cc(O)cc2OC1c1cc(O)c(O)c(O)c1 (centres unmarked)"
  IC50 DPPH: "9.08 ± 0.25 ^bc μg/mL"
- compound: "O=C1O[C@H]([C@@H](O)CO)C(O)=C1O [Vc, L-ascorbic acid, reference compound]"
  IC50 DPPH: "4.23 ± 1.38 ^a μg/mL"

====

List of IC50 ABTS values.
test_summary: ABTS radical scavenging ability
test_parameters: ABTS radical scavenging test, 30 °C, 6 min, 734 nm
Marks after values point to notes of the source that are not given here.

- compound: "O=C1O[C@H]([C@@H](O)CO)C(O)=C1O [Vc, L-ascorbic acid, reference compound]"
  IC50 ABTS: "61.02 ± 2.15 ^a μg/mL"
- compound: "CC(=O)OC1C(=O)c2c(O)cc(O)cc2OC1c1cc(O)c(O)c(O)c1 (stereo not shown)"
  IC50 ABTS: "58.29 ± 2.20 ^a μg/mL"
- compound: "CCCCCCCCCCCC(=O)OC1C(=O)c2c(O)cc(O)cc2OC1c1cc(O)c(O)c(O)c1 (stereo not shown)"
  IC50 ABTS: "360.69 ± 50.13 ^b μg/mL"
- compound: "CCCCCCCC(=O)OC1C(=O)c2c(O)cc(O)cc2OC1c1cc(O)c(O)c(O)c1 (stereo not shown)"
  IC50 ABTS: "80.15 ± 0.42 ^a μg/mL"
